system: compound-treated mice; assay: Neuropharmacological assay (SmartCube): behavioral activity signature and minimal effective dose; format: in vivo; settings: i.p. 15 min before test, most efficacious dose(s)
value.type: AG: analgesic (probability of activity signature)

A selection of reference data follows.
C[C@@H]1OC[C@@H](N)c2cc(Cl)ccc21.Cl | + (LOQ ≤ + <5%)
C[C@@H]1OCc2ccc(F)cc2[C@@H]1N.Cl | ++ (5% ≤ ++ <25%)
Cc1ccc2c(c1)[C@H](N)[C@H](C(C)C)OC2 | + (LOQ ≤ + <5%)
CN[C@H]1COCc2ccc(Cl)c(Cl)c21 | ++ (5% ≤ ++ <25%)

So what does the record say about AG: analgesic (probability of activity signature) for Cl.NC1COCc2ccc(Cl)c(Cl)c21 (centres unmarked) ?
++ (5% ≤ ++ <25%)

So what does the record say about AG: analgesic (probability of activity signature) for C[C@H]1OCc2c(Cl)cccc2[C@@H]1N.Cl ?
++ (5% ≤ ++ <25%)

So what does the record say about AG: analgesic (probability of activity signature) for Cc1cc(C)c2c(c1)[C@@H](N)COC2 (single isomer, unassigned) ?
++ (5% ≤ ++ <25%)

So what does the record say about AG: analgesic (probability of activity signature) for Cc1ccc2c(c1)[C@H](N)CO[C@@H]2C.Cl ?
+ (LOQ ≤ + <5%)

So what does the record say about AG: analgesic (probability of activity signature) for COc1ccc2c(c1)[C@H](N)[C@H](C)OC2 (single isomer, unassigned) ?
++ (5% ≤ ++ <25%)

So what does the record say about AG: analgesic (probability of activity signature) for Cc1cccc2c1[C@H](N)[C@H](C)OC2 (single isomer, unassigned) ?
++ (5% ≤ ++ <25%)

So what does the record say about AG: analgesic (probability of activity signature) for CN[C@@H]1COCc2c(Cl)cccc21 ?
++ (5% ≤ ++ <25%)

So what does the record say about AG: analgesic (probability of activity signature) for CCN(C)C(=O)Oc1ccc2c(c1)CO[C@H](C)[C@H]2N(C)C.Cl ?
+ (LOQ ≤ + <5%)

So what does the record say about AG: analgesic (probability of activity signature) for CCN(C)C(=O)Oc1ccc2c(c1)C(N)COC2.Cl (centres unmarked) ?
+ (LOQ ≤ + <5%)

So what does the record say about AG: analgesic (probability of activity signature) for COc1ccc2c(c1)C(N)COC2.Cl (centres unmarked) ?
++ (5% ≤ ++ <25%)

So what does the record say about AG: analgesic (probability of activity signature) for C#CCN[C@H]1c2ccccc2CO[C@@H]1C.Cl ?
+ (LOQ ≤ + <5%)

So what does the record say about AG: analgesic (probability of activity signature) for Cc1cccc2c1[C@H](C)OC[C@@H]2N ?
+ (LOQ ≤ + <5%)

So what does the record say about AG: analgesic (probability of activity signature) for NC1COCc2ccc(F)cc21 (centres unmarked) ?
++ (5% ≤ ++ <25%)

So what does the record say about AG: analgesic (probability of activity signature) for Cl.NC1COCc2ccc(-c3ccccc3)cc21 (centres unmarked) [Example 7, 6-Phenylisochroman-4-amine hydrochloride] ?
+ (LOQ ≤ + <5%)

So what does the record say about AG: analgesic (probability of activity signature) for CC1(N)COCc2ccc(F)cc21.Cl (centres unmarked) ?
++ (5% ≤ ++ <25%)

###

test system: compound-treated mice; assay: Neuropharmacological assay (SmartCube): behavioral activity signature and minimal effective dose; type: in vivo; details: i.p. 15 min before test, most efficacious dose(s)
value.type: CE: cognitive enhancer (probability of activity signature)

CCc1ccc2c(c1)[C@H](N)[C@@H](C)OC2.Cl | ++ (5% ≤ ++ <25%)
CC[C@H]1OCc2ccc(F)cc2[C@@H]1N.Cl | ++ (5% ≤ ++ <25%)
Cc1cccc2c1[C@H](N)[C@@H](C)OC2 (single isomer, unassigned) | + (LOQ ≤ + <5%)
COc1cccc2c1C(N)COC2.Cl (stereo not shown) | ++ (5% ≤ ++ <25%)

So what does the record say about CE: cognitive enhancer (probability of activity signature) for CNC1CCOCc2ccc(C)cc21.Cl (stereo not shown) ?
++ (5% ≤ ++ <25%)

So what does the record say about CE: cognitive enhancer (probability of activity signature) for COc1ccc2c(c1)[C@H](N)COC2 (single isomer, unassigned) ?
++ (5% ≤ ++ <25%)

So what does the record say about CE: cognitive enhancer (probability of activity signature) for CN[C@@H]1COCc2ccc(Cl)c(Cl)c21 ?
+ (LOQ ≤ + <5%)

So what does the record say about CE: cognitive enhancer (probability of activity signature) for COc1ccc2c(c1)[C@H](N)[C@H](C)OC2 (single isomer, unassigned) ?
++ (5% ≤ ++ <25%)

So what does the record say about CE: cognitive enhancer (probability of activity signature) for Cl.NC1COCc2cccc(F)c21 (stereo not shown) ?
++ (5% ≤ ++ <25%)

So what does the record say about CE: cognitive enhancer (probability of activity signature) for Cc1ccc2c(c1)[C@H](N)CO[C@H]2C.Cl ?
++ (5% ≤ ++ <25%)

###

test system: compound-treated mice; test: Neuropharmacological assay (SmartCube): behavioral activity signature and minimal effective dose; assay type: in vivo; settings: i.p. 15 min before test, most efficacious dose(s)
value.type: CE: cognitive enhancer (probability of activity signature)

A selection of reference data follows.
C[C@@H]1OCc2cccc(Cl)c2[C@H]1N (single isomer, unassigned) | ++ (5% ≤ ++ <25%)
CC[C@@H]1OCc2cccc(C)c2[C@@H]1N.Cl | ++ (5% ≤ ++ <25%)
C[C@@H]1OCc2ccccc2[C@H]1N (single isomer, unassigned) | ++ (5% ≤ ++ <25%)
Cc1cccc2c1COCC2N.Cl (centres unmarked) | ++ (5% ≤ ++ <25%)
Cc1ccc2c(c1)CO[C@H](C)[C@H]2N | + (LOQ ≤ + <5%)
COc1ccc2c(c1)[C@@H](N)[C@H](C)OC2 (single isomer, unassigned) | + (LOQ ≤ + <5%)
C[C@@H]1OC[C@H](N)c2ccccc21.Cl (relative stereo) | ++ (5% ≤ ++ <25%)
Cc1ccc2c(c1C)[C@H](N)[C@H](C)OC2.Cl | ++ (5% ≤ ++ <25%)
Cc1ccc2c(c1)[C@H](N)[C@H](C(C)C)OC2 | + (LOQ ≤ + <5%)
Cl.NC1COCCc2ccc3ccccc3c21 (centres unmarked) [Example 35] | ++ (5% ≤ ++ <25%)

So what does the record say about CE: cognitive enhancer (probability of activity signature) for C[C@@H]1OCc2ccc(C(F)(F)F)cc2[C@@H]1N.Cl ?
+ (LOQ ≤ + <5%)

So what does the record say about CE: cognitive enhancer (probability of activity signature) for CNC1COCc2ccccc21.Cl (centres unmarked) [Example 54, N-Methylisochroman-4-amine hydrochloride] ?
+ (LOQ ≤ + <5%)

So what does the record say about CE: cognitive enhancer (probability of activity signature) for Cc1ccc2c(c1C)[C@H](N)COC2 ?
++ (5% ≤ ++ <25%)

###

tested on: compound-treated mice; experiment: Neuropharmacological assay (SmartCube): behavioral activity signature and minimal effective dose; type: in vivo; details: i.p. 15 min before test, most efficacious dose(s)
value.type: CE: cognitive enhancer (probability of activity signature)

A selection of reference data follows.
C#CCN[C@@H]1COCc2ccccc21.Cl | + (LOQ ≤ + <5%)
Cc1cccc2c1CO[C@@H](C)[C@H]2N.Cl | ++ (5% ≤ ++ <25%)
CCc1ccc2c(c1)C(N)COC2.Cl (centres unmarked) [Example 20, 6-Ethylisochroman-4-amine hydrochloride] | ++ (5% ≤ ++ <25%)
Cc1cccc2c1[C@@H](N)[C@H](C)OC2 (single isomer, unassigned) | ++ (5% ≤ ++ <25%)

Which measured CE: cognitive enhancer (probability of activity signature) belongs to Cl.NC1COCc2ccc3c(c21)C1CCC3C1 (single isomer, unassigned) [Example 162] , tested on compound-treated mice?
++ (5% ≤ ++ <25%)

Which measured CE: cognitive enhancer (probability of activity signature) belongs to CC(C)c1ccc2c(c1)C(N)COC2.Cl (centres unmarked) , tested on compound-treated mice?
++ (5% ≤ ++ <25%)

Which measured CE: cognitive enhancer (probability of activity signature) belongs to C[C@@H]1OCc2ccc(Cl)cc2[C@@H]1N.Cl , tested on compound-treated mice?
++ (5% ≤ ++ <25%)

Which measured CE: cognitive enhancer (probability of activity signature) belongs to C[C@@H]1OCc2ccccc2[C@@H]1N (single isomer, unassigned) , tested on compound-treated mice?
++ (5% ≤ ++ <25%)

Which measured CE: cognitive enhancer (probability of activity signature) belongs to Cc1ccc2c(c1C)[C@H](N)[C@@H](C)OC2.Cl , tested on compound-treated mice?
++ (5% ≤ ++ <25%)

Which measured CE: cognitive enhancer (probability of activity signature) belongs to CC[C@@H]1OCc2ccc(C)cc2[C@H]1N (single isomer, unassigned) , tested on compound-treated mice?
+ (LOQ ≤ + <5%)

Which measured CE: cognitive enhancer (probability of activity signature) belongs to Cc1ccc2c(c1C)C(N)COC2.Cl (centres unmarked) , tested on compound-treated mice?
++ (5% ≤ ++ <25%)
